Please go through the items and note down their % Inhibition.
biological target: bombesin receptor of rat brain membranes (rat); assay: 125I-Bombesin competition, rat brain membranes
Square brackets hold non-standard residues; d marks the D form. Ends that are not written are not given here.
Give bare numbers, in %.

Can you give me % Inhibition for all of these, one by one?
1. XQRCGNQWAVGHLX (Pyr 1; Nle 14; C-terminal amide; Re complexed at Cys 4) [metallopeptide 7-11]
2. [dF]QWAVGCHLL-NH2 (bridge (positions not given here) via ReOCl3(PPh3)2; also: oxorhenium(V) N3S1 tetradentate complex at Cys 7) [metallopeptide 8-4]

1. 95
2. 59

Items follow; give % Inhibition for each.
1. XQRLGNQWAVGCLX (Pyr 1; Nle 14; C-terminal amide; Re complexed at Cys 12) [metallopeptide 7-3]
2. [dF]QWAVC[dH]LL-NH2 (bridge (positions not given here) via ReOCl3(PPh3)2; also: oxorhenium(V) N3S1 tetradentate complex at Cys 6) [metallopeptide 10-1]

1: 82; 2: 10
